System: MCF7
Test: Compound was tested for binding affinity against nuclear ER in MCF-7 cell extracts
Format: functional, cell-based, Homo sapiens
Exercise: state measured pKd for each of the compounds provided.
Numbers only, as −log10 of the molar value.

Reference set (5 entries):
response.value for CCN(CC)CCOc1ccc(/C(=C(/C#N)c2ccccc2)c2ccc(O)cc2)cc1 (field: pKd) = 8.95

response.value for CCN(CC)CCOc1ccc(/C(=C(/Br)c2ccccc2)c2ccc(O)cc2)cc1 (field: pKd) = 9.44

response.value for CC/C(=C(\c1ccc(O)cc1)c1ccc(OCCN(CC)CC)cc1)c1ccccc1 (field: pKd) = 9.54

response.value for CCN(CC)CCOc1ccc(/C(=C(\c2ccccc2)[N+](=O)[O-])c2ccc(O)cc2)cc1 (field: pKd) = 9.25

response.value for CCN(CC)CCOc1ccc(/C(=C\c2ccccc2)c2ccc(O)cc2)cc1 (field: pKd) = 8.95

Here is another compound to look at.
response.value for CCN(CC)CCOc1ccc(/C(=C(/Cl)c2ccccc2)c2ccc(O)cc2)cc1 [4-OH-ENCLOMIPHENE] (field: pKd) = 9.96
